Values compiled from patent US4112105A.

Assay: acute oral toxicity, standard toxicological test procedures
Details: in vivo; acute oral; read-out: 7-day LD50
Entries and their measured LD50 at 168 h follow.

COMPOUND	LD50 at 168 h, mg/kg
CCN(CC)CCCC(C)Nc1snc2cc(Cl)ccc12 (centres unmarked)	1430
CCN(CC)CCCC(C)Nc1snc2ccccc12 (centres unmarked) [(g), reference compound]	1730

---

Assay: inhibition of carrageenin-induced foot edema test
Format: in vivo
Details: po, 0.27 mMole/kg
Where a name gives a salt, the structure may show the parent alone.
Below, each entry is listed with its recorded inhibition in vivo at 270 µmol/kg.
MEASUREMENT_LABEL: inhibition in vivo at 270 µmol/kg (%)

MOLECULE	UNIT	MEASURED_NUMBER
CN(C)CCCNc1snc2cc(Cl)ccc12 [Example 6C, dihydrochloride]	%	41
CCN(CC)CCCC(C)Nc1snc2cc(Cl)ccc12 (centres unmarked) [Example 1D]	%	29
Clc1ccc2c(NCCN3CCCC3)snc2c1 [Example 3C]	%	32
CN(C)CCNc1snc2cc(Cl)ccc12 [Example 5C]	%	29
CN(C)CCCCNc1snc2cc(Cl)ccc12 [Example 7C]	%	32
